# target.or.test.system: Orexin type 1 (OX1R) receptor (Homo sapiens, UniProt O43613)
# Construct: expressed in transfected cells; host or cells: CHO cells (G418 selection)
# Sequence (O43613 whole entry): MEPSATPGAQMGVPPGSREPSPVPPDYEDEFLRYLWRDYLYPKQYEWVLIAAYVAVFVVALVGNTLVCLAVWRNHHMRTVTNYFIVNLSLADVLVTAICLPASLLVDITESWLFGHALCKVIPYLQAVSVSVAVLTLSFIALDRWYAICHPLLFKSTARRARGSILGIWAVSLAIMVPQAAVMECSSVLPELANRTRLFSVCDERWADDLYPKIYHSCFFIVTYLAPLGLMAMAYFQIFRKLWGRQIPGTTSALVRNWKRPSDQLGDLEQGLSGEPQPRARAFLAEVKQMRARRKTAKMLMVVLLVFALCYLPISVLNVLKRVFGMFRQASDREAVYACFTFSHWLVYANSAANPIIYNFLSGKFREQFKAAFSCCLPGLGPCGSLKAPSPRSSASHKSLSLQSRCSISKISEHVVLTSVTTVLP
# procedure.text: In vitro orexin antagonism assay: intracellular calcium measurement (FLIPR), orexin-A 3 nM as agonist
# Format: cell-based
# reported.conditions: second value of IC50/Kb cell
readout: Kb (nM)
Reply numerically in nM, unit not repeated.

Using the record for `C[C@@]1(Cn2ccc(-c3ccccn3)n2)CCCN1C(=O)c1nn2c(c1-c1ccccc1)COCC2` , report its Kb. 110

Given `C[C@@]1(COc2cnc(C(F)(F)F)cn2)CCCN1C(=O)c1c(-c2ccccn2)nn2ccccc12` , state its recorded Kb. 64

GET /values?readout=Kb&item= `O=C(c1c(-c2ccccc2)nn2ccccc12)N1CCC[C@H]1CNc1ccc(C(F)(F)F)cn1` 1

Next:
# get_value(readout='Kb', item= `O=C(c1c(-c2ccccc2)nc2ccc(F)cn12)N1CCC[C@H]1COc1ccc(C(F)(F)F)cn1` ) 17

Looking for the measured Kb of `O=C(c1c(-c2ccccc2)nc2ccccn12)N1[C@@H]2CC[C@@H](C2)[C@H]1COc1ccc(C(F)(F)F)cn1` , can you help? 2

Give the measured Kb of `C[C@@]1(COc2cnc(C(F)(F)F)cn2)CCCN1C(=O)c1c(-c2ccccc2)nn2cccnc12` . 100

// query Kb value for entry `O=C(c1c(-c2ccccc2)nc2cc(C(F)(F)F)ccn12)N1CCC[C@H]1Cn1ccc(-c2ccccn2)n1` 34

* * *

Catalogue of pIC50 readings, one per entry.
# target.or.test.system: Orexin type 1 (OX1R) receptor (Homo sapiens)
# procedure.text: In vitro orexin antagonism assay: intracellular calcium measurement (FLIPR), orexin-A 3 nM as agonist
# reported.conditions: first value of IC50/Kb cell
# Procedure: In Vitro Orexin Antagonism Measurement Assay: Intracellular Calcium Measurements: […] Within the Fluorescent Imaging Plate Reader (FLIPR Tetra, Molecular Devices), antagonists are added to the plate in a volume of 10 μL/well, incubated for 120 min and finally 10 μL/well of agonist is added. […] The calculated IC50values may fluctuate depending on the daily cellular assay performance. […]
Units for pIC50: none; it is -log10 of a concentration expressed in mol/L.

Which pIC50 value is on record for `O=C(c1nn2c(c1-c1ccccn1)OCCC2)N1[C@H](Cn2ccc(-c3ccc(F)cn3)n2)C[C@@H]2C[C@@H]21` ? 7.19

State the recorded pIC50 for this entry: `O=C(c1c(-c2ccccc2)nc2ccccn12)N1[C@@H]2CC[C@@H](C2)[C@H]1COc1ccc(C(F)(F)F)cn1` 7.10

So what's the measured pIC50 for this one? `O=C(c1nc2ccccn2c1-c1ccccn1)N1CCC[C@H]1Cn1ccc(-c2ccccn2)n1` 7.77

Please give the measured pIC50 for this compound: `O=C(c1c(-c2ccccc2)nc2ccccn12)N1CCCC[C@H]1COc1ccc(C(F)(F)F)cn1` 8.40

Could you share which pIC50 value was measured for `O=C(c1c(-c2ccccc2F)nc2ccccn12)N1CCC[C@H]1Cn1ccc(-c2ccc(F)cc2)n1` ? 8.22

Continuing:
Reported pIC50, compound `O=C(c1nc2ccccn2c1-c1ccccn1)N1CCC[C@H]1Cn1cc(-c2ccccn2)cn1` : ____ 7.40

Report pIC50 for `O=C(c1nc2ccccn2c1-c1ccccn1)N1CCC[C@H]1Cc1nc(-c2ccccn2)no1` please. 6.52

What value of pIC50 has been recorded for this entry: `O=C(c1nn2ccccc2c1-c1ccccc1)N1CCC[C@H]1Cc1nc(-c2ccc(F)cn2)no1` 8.70

Value lookup for pIC50; key = `O=C(c1c(-c2ccccc2F)nn2c1COCC2)N1CCC[C@H]1Cn1ccc(-c2ccccn2)n1` 6.92

Would you kindly share the measured pIC50 for `O=C(c1nn2cccnc2c1-c1ccccn1)N1CCC[C@H]1Cc1nc(-c2ccc(F)cn2)no1` ? 7.74

Which pIC50 is listed for `O=C(c1nn2c(c1-c1ccccc1)COCC2)N1C2CCC1(COc1ccc(C(F)(F)F)cn1)CC2` ? 7.32

What value of pIC50 has been reported for the following compound? `C[C@@]1(COc2ccc(C(F)(F)F)cn2)CCCN1C(=O)c1nn2c(c1-c1ccccc1)OCCC2` 6.72

What measured pIC50 goes with `O=C(c1c(-c2ccc(F)cc2)nn2ccccc12)N1CCC[C@H]1Cn1ccc(-c2ccc(C(F)(F)F)cc2)n1` ? 6.24

Dear colleague, I am looking for the recorded pIC50 of the following compound: `O=C(c1nn2ccccc2c1-c1ccccc1)N1CCC[C@H]1Cn1cc(-c2ccc(F)cn2)cn1` 8.40

Endpoint output: pIC50 of `O=C(c1c(-c2ccccc2)nc2cc(F)ccn12)N1CCC[C@H]1COc1ccc(C(F)(F)F)cn1` . Value? 6.49
